Test system: SEM cells
Assay: AUC of viability dose-response curve (% viability x log10 dose units); higher = less sensitive
Details: RPMI 5 mM glucose + 10% FBS; 48 h
Record form. Attribute: AUC of viability dose-response curve. Fill in for each entry.
Numbers only.

Worked cases, answers included:
molecule: CCCCCCOC(=O)/N=C(/N)c1ccc(NCc2nc3cc(C(=O)N(CCC(=O)OCC)c4ccccn4)ccc3n2C)cc1
test.target: SEM cells
data.value: 468
//
molecule: CN(C)CCN(C)C(=O)c1ccc(NC(=O)Nc2ccc(-c3nc(N4CCOCC4)c4ccn(CC(F)(F)F)c4n3)cc2)cc1
test.target: SEM cells
data.value: 325
//
molecule: COc1ccc(C2Sc3ccccc3N(CCN(C)C)C(=O)C2OC(C)=O)cc1 (configuration not stated)
test.target: SEM cells
data.value: 469

Look up AUC of viability dose-response curve for the entries below, preserving their order.
1. COC(=O)C1C2CC3c4[nH]c5cc(OC)ccc5c4CCN3CC2CC(OC(=O)c2cc(OC)c(OC)c(OC)c2)C1OC (configuration not stated)
2. Cc1cc2c(cc1C1(c3ccc(C(=O)O)cn3)CC1)C(C)(C)CCC2(C)C

Result:
1. 459
2. 418

Look up AUC of viability dose-response curve for the entries below, preserving their order.
1. O=C(Oc1ccc([N+](=O)[O-])cc1)N1CCC(C(O)(c2ccc3c(c2)OCO3)c2ccc3c(c2)OCO3)CC1
2. CO/C1=C/C(C)=C\[C@@H](C)[C@@H](O)[C@@H](C)C/C(C)=C\C=C/[C@H](OC)[C@@H]([C@@H](C)[C@@H](O)[C@H](C)[C@@]2(O)C[C@@H](O)[C@H](C)[C@@H](C(C)C)O2)OC1=O

Result:
[379, 211]
